Assay: Inhibition of HIV-1 Reverse transcriptase K103N/Y181C double mutant
pIC50: −log10 of the molar value.
metric: pIC50

structure smiles | metric | value measured
Cc1cc(C#N)cc(C)c1Nc1ncnc(Nc2ccc(C#N)cc2)n1 | pIC50 | 7.49
Cc1cc(/C=C/C#N)cc(C)c1Nc1ncnc(Nc2ccc(C#N)cc2)n1 | pIC50 | 9.00
Cc1cc(C#N)cc(C)c1Oc1ncnc(Nc2ccc(C#N)cc2)n1 | pIC50 | 7.60

====

Test: Inhibition of HIV-1 Reverse transcriptase K103N mutant

structure smiles | IC50
Cc1cc(/C=C/C#N)cc(C)c1Nc1ncnc(Nc2ccc(C#N)cc2)n1 | 300 pM
Cc1cc(C#N)cc(C)c1Nc1ncnc(Nc2ccc(C#N)cc2)n1 | 400 pM
Cc1cc(C#N)cc(C)c1Oc1ncnc(Nc2ccc(C#N)cc2)n1 | 1400 pM

====

Experiment: Inhibition of HIV-1 integrase strand transfer activity
pIC50: −log10 of the molar value.
metric: pIC50

structure smiles | metric | value measured
CCc1nc(SC)n(COCc2ccccc2)c1CC1CCCCC1 | pIC50 | 6.40
CCOCn1c(SC)nc(C(C)C)c1CC1CCCCC1 | pIC50 | 6.60
CSc1nc(C(C)C)c(CC2CCCCC2)n1COCc1ccccc1 | pIC50 | 6.59
CSc1nc(C(C)C)c(Cc2ccccc2)n1COCc1ccccc1 | pIC50 | 5.48

====

Assay: Inhibition of wild type HIV-1 LAI reverse transcriptase
metric: IC50 (pM)

structure smiles | metric | value measured
Cc1cc(/C=C/C#N)cc(C)c1Nc1ncnc(Nc2ccc(C#N)cc2)n1 | IC50 | 400
Cc1cc(C#N)cc(C)c1Oc1ncnc(Nc2ccc(C#N)cc2)n1 | IC50 | 1400
Cc1cc(C#N)cc(C)c1Nc1ncnc(Nc2ccc(C#N)cc2)n1 | IC50 | 400
